These data points were gathered from ChEMBL document CHEMBL3507680.

Test: Human HepG2 cell viability assay in 384 well format
Type: toxicity, cell-based
Design: dose 125 nL, time 70.5 hour; concentration not given beside the values
Details: HepG2 cells, read-out: Inhibition
Quantity measured: cytotoxicity at 70.5 h (%)
Kindly provide the numeric value in % only, without the unit symbol.

# Molecule, cytotoxicity at 70.5 h / %
measured = [
    ("CN1CCOC(C)(C(=O)Nc2nccs2)C1 (stereo unspecified)", 40.2),
    ("CCC(C)Oc1ccc(CNCCNC(C)=O)cc1OC (stereo unspecified)", -6.94),
    ("CCN(Cc1csc(CS(C)(=O)=O)n1)c1cccc(CO)c1", -6.41),
    ("Cn1cnnc1SCC(=O)N1C[C@H]2CC[C@@H]1CN(Cc1cccnc1)C2", -3.64),
    ("CC(=O)c1cccc(OCCCC(=O)N(C)CCc2ccncc2)c1", -10.1),
]

[ask] Using the record for CC(=O)N1CCC(NC(=O)CN2CCCc3c(F)ccc(C)c32)CC1 , report its cytotoxicity at 70.5 h.
[reply] -4.42

[ask] Fill blank: measured cytotoxicity at 70.5 h of the molecule Cc1noc(C2CCC3(CCN(C(=O)c4sccc4C)CC3)O2)n1 (stereo unspecified) is ____.
[reply] -4

[ask] Return reported cytotoxicity at 70.5 h; argument: O=C(c1ccco1)N(CC(F)(F)F)C1CCCOC1 (stereo unspecified)
[reply] -2.62

[ask] cytotoxicity at 70.5 h lookup needed for Cc1cc(CNC(=O)NCCCC(=O)N2CCc3ccccc32)no1 , thanks.
[reply] -2.16

[ask] Looking for the measured cytotoxicity at 70.5 h of c1ncn(Cc2nnc(C3CCN(C4CCOCC4)CC3)n2C2CC2)n1 , can you help?
[reply] -7.09

[ask] Can you share its cytotoxicity at 70.5 h? I mean this molecule: CS(=O)(=O)NCC1CCCN(C(=O)Nc2cccc3ccccc23)C1 (stereo unspecified)
[reply] -3.21
